Test system: MDA-MB-231 cell lines
Assay: CGI (cell growth inhibition, propidium iodide) assay in MDA-MB-231 cell lines
Type: cell-based
Settings: Homo sapiens, determined at 72 h
Hi there, I'd appreciate the recorded EC50 for every entry that follows.
Give bare numbers, in µM.

INSERT INTO results (compound, assayed_target, observed_result) VALUES
  ('O=c1c2ccccc2[se]n1-c1ccccc1 [Ebselen]', 'MDA-MB-231 cell lines', 3.89);

# context switch: different compound, same EC50
# input Quick one: EC50 for CN1CC[C@@H](c2c(O)cc(O)c3c(=O)cc(-c4ccc(C(F)(F)F)cc4Cl)oc23)[C@@H]1CO.Cl [Voruciclib, hydrochloride] ?
# output 2.3
